biological target: UniProt:P30291; assay: Wee1 protein degradation assay (HiBiT assay); format: cell-based; details: engineered HT-1080 cells, 20 hours; maximum percentage of Wee1 degradation; read-out: HiBiT Wee1: Dmax
observable: Dmax

{"columns": ["compound", "observable", "testValue"],
 "data": [
  ["C=CCn1c(=O)c2cnc(Nc3ccc(C4CCN(CC5CCN(c6ccc(C(=O)NC7CCC(=O)NC7=O)nc6)CC5)CC4)cc3)nc2n1-c1cccc(C(C)(C)O)n1 (stereo not shown)", "Dmax", "< 50%"]
]}

// Dmax lookup, key: O=C1CCC(N2C(=O)c3ccc(N4CC(CN5CCC(c6ccc(Nc7ncc8c(=O)n(-c9c(Cl)cccc9Cl)c9nccn9c8n7)cc6)CC5)C4)cc3C2=O)C(=O)N1 (stereo not shown)
50 to 75%

Do the same for C=CCn1c(=O)c2cnc(Nc3ccc(N4CCN(CC5CCN(c6ccc(NC7CCC(=O)NC7=O)cc6F)CC5)CC4)cc3)nc2n1-c1cccc(OC)n1 (stereo not shown) please
> 75%

Do the same for C=CCn1c(=O)c2cnc(Nc3ccc(N4CCN(CC5CCN(c6cc(OC)c(NC7CCC(=O)NC7=O)cc6F)CC5)CC4)cc3)nc2n1-c1ccc2c(n1)[C@@](O)(CC)CC2 (stereo partly shown) please
> 75%

Do the same for C=CCn1c(=O)c2cnc(Nc3ccc(N4CCC(CN5CCN(c6ccc(NC7CCC(=O)NC7=O)cc6)CC5)CC4)cc3)nc2n1-c1cccc(C(C)(C)O)n1 (stereo not shown) please
> 75%

Do the same for C=CCn1c(=O)c2cnc(Nc3ccc(N4CCC(CN5CCN(c6ccc7c(c6)C(=O)N(C6CCC(=O)NC6=O)C7=O)CC5)CC4)cc3)nc2n1-c1cccc(C(C)(C)O)n1 (stereo not shown) please
50 to 75%

Do the same for C=CCn1c(=O)c2cnc(Nc3ccc(N4CCN(CC5CCN(c6ccc(NC7CCC(=O)NC7=O)cc6F)CC5)CC4)cc3)nc2n1-c1ccc2c(n1)[C@](C)(O)CC2 (single isomer, unassigned) [Compound 152-B] please
> 75%

Do the same for C[C@]1(O)CC/C=C\Cn2c(=O)c3cnc(Nc4ccc(N5CCN(CC6CCN(c7ccc(NC8CCC(=O)NC8=O)cc7F)CC6)CC5)cc4)nc3n2-c2cccc1n2 (single isomer, unassigned) please
> 75%

Do the same for C=CCn1c(=O)c2cnc(Nc3ccc(N4CCC(CN5CCC(c6cccc7c6n(C)c(=O)n7C6CCC(=O)NC6=O)CC5)CC4)cc3)nc2n1-c1ccc2c(n1)[C@](O)(CC)CC2 (stereo partly shown) please
< 50%

Do the same for C=CCn1c(=O)c2cnc(Nc3ccc(N4CCC(CN5CCC(c6cccc7c6n(C)c(=O)n7C6CCC(=O)NC6=O)CC5)CC4)cc3)nc2n1-c1ccc2c(n1)[C@@](O)(CC)CC2 (stereo partly shown) please
50 to 75%

====

biological target: HiBiT tagged Wee1 (Homo sapiens); experiment: Wee1 protein degradation assay (HiBiT assay); assay type: cell-based; conditions: engineered HT-1080 cells, 20 hours
Sequence (P30291 whole entry): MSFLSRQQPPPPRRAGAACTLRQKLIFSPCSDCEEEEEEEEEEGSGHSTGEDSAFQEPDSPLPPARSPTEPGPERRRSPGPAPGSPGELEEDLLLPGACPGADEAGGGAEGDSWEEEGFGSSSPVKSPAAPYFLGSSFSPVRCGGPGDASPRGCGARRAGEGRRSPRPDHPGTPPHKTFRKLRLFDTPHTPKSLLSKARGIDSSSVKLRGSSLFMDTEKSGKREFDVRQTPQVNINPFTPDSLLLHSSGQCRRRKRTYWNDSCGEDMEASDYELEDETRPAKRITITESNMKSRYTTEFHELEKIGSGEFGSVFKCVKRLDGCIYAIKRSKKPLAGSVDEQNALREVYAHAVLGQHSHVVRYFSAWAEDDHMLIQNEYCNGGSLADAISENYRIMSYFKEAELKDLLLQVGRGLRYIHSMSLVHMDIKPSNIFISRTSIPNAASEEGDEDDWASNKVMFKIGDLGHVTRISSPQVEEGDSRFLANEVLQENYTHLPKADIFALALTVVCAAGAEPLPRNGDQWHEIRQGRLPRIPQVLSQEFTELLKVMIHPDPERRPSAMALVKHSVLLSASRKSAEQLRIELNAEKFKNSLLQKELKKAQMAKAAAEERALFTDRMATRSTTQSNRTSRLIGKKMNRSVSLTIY
Reported DC50 values are given for each entry in this list.

# count of solved cases: 3
{"columns": ["compound", "experimentalTarget", "DC50"],
 "data": [
  ["C=CCn1c(=O)c2cnc(Nc3ccc(N4CCN(C5CC6(C5)CN(c5ccc7c(N8CCC(=O)NC8=O)nn(C)c7c5)C6)CC4)cc3)nc2n1-c1ccc2c(n1)[C@@](O)(CC)CC2 [Compound 170]", "HiBiT tagged Wee1 (Homo sapiens)", "< 100 nM"],
  ["C=CCn1c(=O)c2cnc(Nc3ccc(C4CCN(CC5CCN(c6cccc7c6n(C)c(=O)n7C6CCC(=O)NC6=O)CC5)CC4)cc3)nc2n1-c1ccc2c(n1)[C@@](O)(CC)CC2 (some centres unmarked) [Compound 108]", "HiBiT tagged Wee1 (Homo sapiens)", "< 100 nM"],
  ["C=CCn1c(=O)c2cnc(Nc3ccc(N4CCN(CC5CCN(c6ncc(NC7CCC(=O)NC7=O)cc6F)CC5)[C@@H](C)C4)cc3)nc2n1-c1ccc2c(n1)[C@@](O)(CC)CC2 (some centres unmarked) [Compound 192]", "HiBiT tagged Wee1 (Homo sapiens)", "< 100 nM"]
]}

// DC50 lookup, key: C=CCn1c(=O)c2cnc(Nc3ccc(C4CCN(C5CN(c6ccc(NC7CCC(=O)NC7=O)cc6F)C5)CC4)cc3)nc2n1-c1cccc(C(C)(C)O)n1 (centres unmarked) [Compound 148]
< 100 nM

Do the same for C=CCn1c(=O)c2cnc(Nc3ccc4c(c3)CN(CC3CCN(c5ccc6c(c5)C(=O)N(C5CCC(=O)NC5=O)C6=O)CC3)CC4)nc2n1-c1cccc(C(C)(C)O)n1 (centres unmarked) [Compound 7] please
> 1000 nM

====

molecular target: HiBiT tagged Wee1 (Homo sapiens); assay: Wee1 protein degradation assay (HiBiT assay); assay type: cell-based; details: engineered HT-1080 cells, 20 hours
Reported DC50 values are given for each entry in this list.

# count of solved cases: 2
{"columns": ["compound", "experimentalTarget", "DC50"],
 "data": [
  ["C=CCn1c(=O)c2cnc(Nc3ccc(N4CCC(CC(=O)Nc5cccc6c(N7CCC(=O)NC7=O)nn(C)c56)CC4)cc3)nc2n1-c1ccc2c(n1)[C@@](O)(CC)CC2 [Compound 202]", "HiBiT tagged Wee1 (Homo sapiens)", "> 1000 nM"],
  ["C=CCn1c(=O)c2cnc(Nc3ccc(N4CCC(CN5CCC(c6cccc7c6n(C)c(=O)n7C6CCC(=O)NC6=O)CC5)CC4)cc3)nc2n1-c1cccc(C(C)(C)O)n1 (stereo not drawn) [Compound 55]", "HiBiT tagged Wee1 (Homo sapiens)", "< 100 nM"]
]}

// DC50 lookup, key: C=CCn1c(=O)c2cnc(Nc3ccc(C4CCN(C5CCN(c6cccc7c6n(C)c(=O)n7C6CCC(=O)NC6=O)CC5)CC4)cc3)nc2n1-c1cccc(C(C)(C)O)n1 (stereo not drawn) [Compound 99]
< 100 nM

====

assay: Pharmacokinetic study in mice (IV and PO); assay type: in vivo; conditions: mouse, plasma; IV (2 mg/kg), male CD1 mice
observable: AUC(0-inf) (ng·h/mL)
Please respond with the number in ng·h/mL and leave the unit unwritten.

{"columns": ["compound", "unitSpec", "AUC(0-inf)"],
 "data": [
  ["C=CCn1c(=O)c2cnc(Nc3ccc(N4CCC(CN5CCN(c6ccc(NC7CCC(=O)NC7=O)cc6F)CC5)CC4)cc3)nc2n1-c1cccc(C(C)(C)O)n1 (centres unmarked)", "ng·h/mL", 6730],
  ["C=CCn1c(=O)c2cnc(Nc3ccc(N4CCC(CN5CCC(c6cccc7c6n(C)c(=O)n7C6CCC(=O)NC6=O)CC5)CC4)cc3)nc2n1-c1cccc(C(C)(C)O)n1 (centres unmarked)", "ng·h/mL", 6980],
  ["C=CCn1c(=O)c2cnc(Nc3ccc(C4CCN(CC5CCN(c6cccc7c6n(C)c(=O)n7C6CCC(=O)NC6=O)CC5)CC4)cc3)nc2n1-c1cccc(C(C)(C)O)n1 (centres unmarked)", "ng·h/mL", 26700],
  ["C=CCn1c(=O)c2cnc(Nc3ccc(N4CCN(CC5CCN(c6ccc(NC7CCC(=O)NC7=O)cc6F)CC5)CC4)cc3)nc2n1-c1ccc2c(n1)[C@@](O)(CC)CC2 (mixture of isomers)", "ng·h/mL", 10900]
]}

Alright, here's another compound for you.
// AUC(0-inf) lookup, key: C=CCn1c(=O)c2cnc(Nc3ccc(N4CCC(CN5CCC(c6ccc(NC7CCC(=O)NC7=O)cc6)CC5)CC4)cc3)nc2n1-c1cccc(C(C)(C)O)n1 (centres unmarked)
1130

====

Assay: Pharmacokinetic study in mice (IV and PO)
Assay type: in vivo
Conditions: mouse, plasma; IV (2 mg/kg), male CD1 mice
Experimental: Objective: the objective of this study was to determine the pharmacokinetics of test compound following intravenous (IV) and oral (PO) administration to male CD1 mice. […] The CD1 mice were administered with the test article intravenously via tail vein at 2 mg/kg or orally at 10 mg/kg. […] The plasma samples were stored at −75±15° C. until analyzed by LC-MS/MS. The PK parameters were calculated using non-compartmental model by Phoenix WinNonlin 6.1 (Linear/log trapezoidal).
observable: clearance (mL/min/kg)
Please respond with the number in mL/min/kg and leave the unit unwritten.

# count of solved cases: 4
{"columns": ["compound", "clearance (mL/min/kg)"],
 "data": [
  ["C=CCn1c(=O)c2cnc(Nc3ccc(C4CCN(CC5CCN(c6cccc7c6n(C)c(=O)n7C6CCC(=O)NC6=O)CC5)CC4)cc3)nc2n1-c1cccc(C(C)(C)O)n1 (centres unmarked)", 1.25],
  ["C=CCn1c(=O)c2cnc(Nc3ccc(N4CCN(CC5CCN(c6ccc(NC7CCC(=O)NC7=O)cc6F)CC5)CC4)cc3)nc2n1-c1ccc2c(n1)[C@@](O)(CC)CC2 (mixture of isomers)", 3.24],
  ["C=CCn1c(=O)c2cnc(Nc3ccc(N4CCC(CN5CCC(c6cccc7c6n(C)c(=O)n7C6CCC(=O)NC6=O)CC5)CC4)cc3)nc2n1-c1cccc(C(C)(C)O)n1 (centres unmarked)", 4.78],
  ["C=CCn1c(=O)c2cnc(Nc3ccc(N4CCC(CN5CCC(c6ccc(NC7CCC(=O)NC7=O)cc6)CC5)CC4)cc3)nc2n1-c1cccc(C(C)(C)O)n1 (centres unmarked)", 29.5]
]}

Alright, here's another compound for you.
// clearance lookup, key: C=CCn1c(=O)c2cnc(Nc3ccc(N4CCC(CN5CCN(c6ccc(NC7CCC(=O)NC7=O)cc6F)CC5)CC4)cc3)nc2n1-c1cccc(C(C)(C)O)n1 (centres unmarked)
4.95

All figures here come from patent US20250049798A1.
